# System: MCF7 (Breast) cells
# Protocol Summary: Sulforhodamine B (SRB) assay, MCF7
# Assay type: cell-based, human
# Applied Conditions: MCF7 Breast, SRB, 48 h
Reported TGI is given for each of the following molecules.
Provide the reading as a plain figure in nM.

Sample answers from the record:
{"Molecule": "C=C1CC2C(CC[C@]3(C)C(=O)C(F)CC23)[C@@]2(C)CCC(=NOC3CCNC3)CC12 (stereo partly shown) [Compound 6]", "TGI, nM": 82}
{"Molecule": "C[C@]12CCC(=NOC3CCNC3)CC1CCC1C2CC[C@]2(C)C(=O)C(F)CC12 (stereo partly shown) [Compound 2]", "TGI, nM": 478}

Then this molecule:
Exercise: Quick check: TGI on MCF7 (Breast) cells, item CON=C1CC2C(CC[C@]3(C)C(=O)C(F)CC23)[C@@]2(C)CCC(=NOC3CCNC3)CC12 (stereo in doubt) [Compound 8] ?
Key: 327

###

# Measurement Target: Na+/K+-ATPase (Adenosine 5′-Triphosphatase isolated from porcine cerebral cortex)
# Protocol Summary: Na+/K+-ATPase inhibitory activity, colorimetric Adenosine 5′-Triphosphatase Enzymatic Assay (Sigma)
# Applied Conditions: enzyme from porcine cerebral cortex, 0.5 units/ml
Measured Metric: pIC50
The scale used: pIC50 is minus the common logarithm of the concentration in molar units.

{"Molecule": "CC(=O)OC[C@]12CCC(=NO[C@@H]3CCNC3)C[C@@H]1CCC1C2CC[C@]2(C)C(=O)CCC12 (stereo partly shown)", "Meas Value": 5.54}

Exercise: Record request: pIC50 value, item C[C@]12CCC3C(CC[C@H]4CC(=NO[C@H]5CCNC5)CC[C@]34CO)C1CCC2=O (stereo partly shown)
Key: 6.28

Exercise: CON=C1CC2C(CC[C@]3(C)C(=O)C(F)CC23)[C@@]2(C)CCC(=NOC3CCNC3)CC12 (stereo in doubt) ?
Key: 6.51

Exercise: C[C@]12CCC(=NO[C@H]3CCNC3)C(c3ccccc3)C1CCC1C2CC[C@]2(C)C(=O)CCC12 (stereo partly shown) ?
Key: 4.71

Exercise: C[C@]12CCC(=NOC3CCNC3)CC1C(=O)CC1C2CC[C@]2(C)C(=O)C(F)CC12 (stereo partly shown) ?
Key: 6.71

Exercise: C[C@]12CCC(=NOC3CCNC3)CC1CCC1C2CC[C@]2(C)C(=O)C(F)CC12 (stereo partly shown) ?
Key: 7.14

Exercise: C[C@]12CCC3C(CC(=O)[C@H]4CC(=NO[C@H]5CCNC5)CC[C@]34CO)C1CCC2=O (stereo partly shown) ?
Key: 4.89

###

# Test system: PC3 (Prostate) cells
# Protocol Summary: Sulforhodamine B (SRB) assay, PC3
# Format: cell-based
# Applied Conditions: Homo sapiens, Prostate cell; PC3 Prostate, SRB, 48 h
Values of IC (TGI) greater than or equal to 3 µM map to satisfied; values below map to not satisfied.

{"Compound": "CC1CC2C(CC[C@]3(C)C(=O)C(F)CC23)[C@@]2(C)CCC(=NOC3CCNC3)C=C12 (stereo partly shown) [Compound 86]", "Assigned Category": "satisfied"}
{"Compound": "C[C@]12CCC(=NOC3CCNC3)CC1CCC1C2CC[C@]2(C)C(=O)C(F)CC12 (stereo partly shown) [Compound 2]", "Assigned Category": "not satisfied"}
{"Compound": "C=C1CC2C(CC[C@]3(C)C(=O)C(F)CC23)[C@@]2(C)CCC(=NOC3CCNC3)CC12 (stereo partly shown) [Compound 6]", "Assigned Category": "not satisfied"}
{"Compound": "CC(=O)OC[C@]12CCC(=NO[C@@H]3CCNC3)C[C@@H]1CCC1C2CC[C@]2(C)C(=O)CCC12 (stereo partly shown) [Compound 48]", "Assigned Category": "satisfied"}
{"Compound": "CON=C1CC2C(CC[C@]3(C)C(=O)C(F)CC23)[C@@]2(C)CCC(=NOC3CCNC3)CC12 (stereo in doubt) [Compound 8]", "Assigned Category": "not satisfied"}
{"Compound": "C[C@]12CCC(=NOC3CCNC3)CC1C(=O)CC1C2CC[C@]2(C)C(=O)C(F)CC12 (stereo partly shown) [Compound 4]", "Assigned Category": "satisfied"}

With those in mind, consider the next compound.
Exercise: hey, is IC (TGI) for this one >= 3 µM? CON=C1CC2C(CC[C@]3(C)C(=O)CCC23)[C@@]2(CO)CCC(=NOC3CCNC3)CC12 (stereo in doubt) [Compound 30]
Key: satisfied
